System: SK-MEL-5 melanoma
Assay: NCI tumour cell line growth inhibition, 48 h; in the data active = GI50 below about 0.43 µM; inactive = the rest
Classes used: y for active, n for inactive

{"MOLECULE": "Cc1cc(Cl)ccc1Nc1nc(C(F)(F)F)ccc1C(=O)N/N=C/c1ccc(N(C)C)cc1", "CLASS_LABEL": "n"}
{"MOLECULE": "COc1ccc(-c2cc3nccn3c(Nc3ncccc3C(N)=O)n2)cc1OC", "CLASS_LABEL": "n"}
{"MOLECULE": "C[C@@H]1CCC2[C@@H](C)[C@H](OC(=O)CCC(=O)NCCNC(=O)Cc3cc(=O)oc4cc(N(C)C)ccc34)O[C@@H]3O[C@]4(C)CC[C@@H]1C23OO4 (stereo partly specified)", "CLASS_LABEL": "n"}
{"MOLECULE": "CC(=O)[CH-]C(=O)c1ccccc1.CC(=O)[CH-]C(=O)c1ccccc1.CC12CC3(C)CC(C)(C1)CC([O-])(C2)C3.CC[O-].[Ti+4]", "CLASS_LABEL": "n"}
{"MOLECULE": "Cc1ccc(C(=O)Nc2ccccc2C(=O)N/N=C(\\c2ccccc2)c2ccccn2)cc1", "CLASS_LABEL": "y"}
{"MOLECULE": "CCOC(=O)c1cn2ncnc(Oc3ccc(NC(=O)NCCN(CC)CC)c(Cl)c3)c2c1C", "CLASS_LABEL": "n"}
{"MOLECULE": "ClC1=C(Cl)C(Cl)=C(Cl)C1=Cc1ccc(Cl)cc1Cl", "CLASS_LABEL": "n"}
{"MOLECULE": "CCCCCCCCCCC(CN(CC)CC)C(O)c1ccccc1 (stereo unspecified)", "CLASS_LABEL": "n"}
{"MOLECULE": "C=CC1=C(C)C(Cc2[nH]c(/C=c3\\[nH]/c(=C/C4=NC(=O)C(C)/C4=C\\C)c(C)c3CCC(=O)O)c(CCC(=O)OC)c2C)NC1=O (stereo unspecified)", "CLASS_LABEL": "n"}
{"MOLECULE": "Clc1ccc2c(NCCN3CCN(c4ccnc(N5CCCC5)n4)CC3)ccnc2c1", "CLASS_LABEL": "n"}
{"MOLECULE": "O=C(Nn1c2c(sc1=NC1CC1)C(=O)c1ccccc1C2=O)c1cc2ccc1CCc1ccc(cc1)CC2", "CLASS_LABEL": "n"}
{"MOLECULE": "COC(=O)C1=C2CO[C@@H]3C[C@H]4C(C)(C)CCC[C@]4(C)C(=CC1)[C@]23C", "CLASS_LABEL": "n"}
{"MOLECULE": "CC1CCC(C#N)(NOC2=NCCN2)CC1 (stereo unspecified)", "CLASS_LABEL": "n"}
{"MOLECULE": "COc1cc2c(cc1-c1c(C)noc1C)ncc1[nH]c(=O)n([C@H](C)c3ccccn3)c12", "CLASS_LABEL": "n"}
{"MOLECULE": "CN(C)S(=O)(=O)c1cccc(-c2nc3sc4c(c3c(=O)[nH]2)CCCC4)c1", "CLASS_LABEL": "n"}
{"MOLECULE": "Cc1ccc2oc(=O)cc(C3c4ccc([nH]4)C(c4cc(=O)oc5ccc(C)cc45)c4ccc([nH]4)C(c4cc(=O)oc5ccc(C)cc45)c4ccc([nH]4)C(c4cc(=O)oc5ccc(C)cc45)c4ccc3[nH]4)c2c1 (stereo unspecified)", "CLASS_LABEL": "y"}

###

# key: entry, value: TGI
Tested on: SW-620 colon
Assay: NCI tumour cell line growth inhibition, 48 h
MEASURED_ENDPOINT: TGI

{"COMPOUND": "CCOC(CN(C)C(=O)OCC(Cl)(Cl)Cl)OCC", "READING": "> 100 µM"}
{"COMPOUND": "CC1(C)OCC(C2OC(=O)C(OCc3ccccc3)=C2OCc2ccccc2)O1 (stereo unspecified)", "READING": "> 100 µM"}
{"COMPOUND": "Clc1ccc2c(NCCN3CCN(c4ccnc(N5CCCC5)n4)CC3)ccnc2c1", "READING": "4.31 µM"}
{"COMPOUND": "Cc1[nH]ccc2cc3nc4ccccc4c3cc12", "READING": "6.9 µM"}
{"COMPOUND": "COC(=O)C1CCC(N2C(=O)CCC2C(=O)OC)=N1 (stereo unspecified)", "READING": "> 100 µM"}
{"COMPOUND": "CN(c1ccccc1Cl)S(=O)(=O)c1ccccc1", "READING": "> 100 µM"}
{"COMPOUND": "O=C(Cc1ccccc1)NN1C(=O)C(Cl)C1c1ccccc1 (stereo unspecified)", "READING": "> 100 µM"}
{"COMPOUND": "Cn1nc2ccc3nccc(NCCNCCCl)c3c2n1", "READING": "> 100 µM"}
{"COMPOUND": "O/N=C1/C(=C/c2ccccc2)CCCC1C(NO)c1ccccc1 (stereo unspecified)", "READING": "> 100 µM"}
{"COMPOUND": "COc1ccc(CC(C#N)c2cc(OC)c(OC)c(OC)c2)cc1 (stereo unspecified)", "READING": "> 100 µM"}
{"COMPOUND": "Cc1sc2c(c1C)C(c1ccc(Cl)cc1)=N[C@@H](CC(=O)Nc1ccc(O)cc1)c1nnc(C)n1-2", "READING": "32 µM"}

###

Test system: ACHN renal
Experiment: NCI tumour cell line growth inhibition, 48 h
Entries and their GI50 values follow.

{"COMPOUND": "CCOC(=O)c1cn2ncnc(Oc3ccc(NC(=O)NCCN(CC)CC)c(Cl)c3)c2c1C", "GI50": "2310 nM"}
{"COMPOUND": "Cc1sc2c(c1C)C(c1ccc(Cl)cc1)=N[C@@H](CC(=O)Nc1ccc(O)cc1)c1nnc(C)n1-2", "GI50": "1280 nM"}
{"COMPOUND": "CSc1ccc(C(=O)/C=C/c2ccc(F)cc2)cc1", "GI50": "> 100000 nM"}
{"COMPOUND": "CC(C)(C)n1cc(-c2ccnc(NCCCNS(=O)(=O)c3ccc(Cl)cc3)c2)c(-c2cccc(O)c2)n1", "GI50": "1970 nM"}
{"COMPOUND": "COc1ccc(-c2cc3nccn3c(Nc3ncccc3C(N)=O)n2)cc1OC", "GI50": "445 nM"}
{"COMPOUND": "CCCCCCCCCCC(CN(CC)CC)C(O)c1ccccc1 (stereo not drawn)", "GI50": "1610 nM"}
{"COMPOUND": "CCN1CCN(c2cc(C)nc(NCc3cc(Nc4ccnc5cc(Cl)ccc45)ccc3F)n2)CC1", "GI50": "2890 nM"}
{"COMPOUND": "CC(=O)[CH-]C(=O)c1ccccc1.CC(=O)[CH-]C(=O)c1ccccc1.CC12CC3(C)CC(C)(C1)CC([O-])(C2)C3.CC[O-].[Ti+4]", "GI50": "38700 nM"}
{"COMPOUND": "C#CCOc1cccc(Nc2ncnc3c2ncn3C2CCN(C(=O)CCl)C2)c1 (stereo not drawn)", "GI50": "17700 nM"}
{"COMPOUND": "CCNC(=O)CCCCC(=O)c1c(C)[nH]c(/C=C2\\N=C(c3ccc[nH]3)C=C2OC)c1C", "GI50": "1800 nM"}
{"COMPOUND": "CCN1CCN(c2nc(C)cc(N(CCCNc3ccnc4cc(Cl)ccc34)Cc3ccco3)n2)CC1", "GI50": "2580 nM"}
{"COMPOUND": "C[C@@H]1CCC2[C@@H](C)[C@H](OC(=O)CCC(=O)NCCNC(=O)Cc3cc(=O)oc4cc(N(C)C)ccc34)O[C@@H]3O[C@]4(C)CC[C@@H]1C23OO4 (stereo partly drawn)", "GI50": "2960 nM"}
{"COMPOUND": "COc1cccc2cc(N(C)c3nc(C)nc4ccsc34)ccc12", "GI50": "< 10 nM"}
{"COMPOUND": "O=C(/C=C\\c1ccc(OCCCCCC[P+](c2ccccc2)(c2ccccc2)c2ccccc2)cc1)c1ccc2c(c1)OCCO2", "GI50": "1790 nM"}
{"COMPOUND": "CC(=O)[CH-]C(=O)c1ccccc1.CC(=O)[CH-]C(=O)c1ccccc1.CC[O-].O=C1C=C([O-])C(=O)c2ccccc21.[Ti+4]", "GI50": "66500 nM"}
{"COMPOUND": "COc1ccc2nc(C3=CN(C4OC(CO)C(O)C(O)C4O)C4C=CC=CC34)sc2c1 (stereo not drawn)", "GI50": "19000 nM"}
{"COMPOUND": "COc1ccc(Cn2cc3c(c2-c2ccccc2)CCc2cncnc2-3)cc1", "GI50": "11300 nM"}
{"COMPOUND": "COc1cc(C(=O)/C=C/c2c(-c3cccs3)nc3ccccn23)cc(OC)c1OC", "GI50": "2090 nM"}

###

Test system: NCI/ADR-RES ovarian
Assay: NCI tumour cell line growth inhibition, 48 h
Listed molecules paired with reported TGI
MEASURED_ENDPOINT: TGI

{"MOLECULE": "CN(C)S(=O)(=O)c1cccc(-c2nc3sc4c(c3c(=O)[nH]2)CCCC4)c1", "MEASURED_ENDPOINT": "TGI", "READING": "> 100 µM"}
{"MOLECULE": "CSc1ccc(C(=O)/C=C/c2ccc(F)cc2)cc1", "MEASURED_ENDPOINT": "TGI", "READING": "> 100 µM"}
{"MOLECULE": "CC(=O)O[C@@H]1CC2[C@@H](CCC3Cc4nc5c(nc4C[C@@]32C)CC2CC[C@@H]3C(CC[C@@]4(C)C3CC[C@@H]4C(C)CCCC(C)C)[C@@]2(C)C5)C2C[C@@H]3OC4(CCC(C)CO4)C(C)[C@@H]3[C@]21C (some centres undefined)", "MEASURED_ENDPOINT": "TGI", "READING": "> 100 µM"}
{"MOLECULE": "CC1=NN(c2cccc(Cl)c2)C2(C1)SCC(=O)N2c1nc2ccccc2s1 (centres undefined)", "MEASURED_ENDPOINT": "TGI", "READING": "> 100 µM"}
{"MOLECULE": "CC[C@@]1(O)C(=O)OCc2c1cc1n(c2=O)Cc2c-1nc1ccccc1c2/C=N\\NC(=O)C(N)=O", "MEASURED_ENDPOINT": "TGI", "READING": "> 73.5 µM"}
{"MOLECULE": "O=C1O[C@H](COC(=O)c2ccccc2)[C@@H](OC(=O)c2ccccc2)C=C1OC(=O)c1ccccc1", "MEASURED_ENDPOINT": "TGI", "READING": "38.8 µM"}
{"MOLECULE": "NC(N)=N/N=C(/c1ccccc1)c1ccc(O)cc1O", "MEASURED_ENDPOINT": "TGI", "READING": "> 100 µM"}
{"MOLECULE": "COc1ccc2nc(C3=CN(C4OC(CO)C(O)C(O)C4O)C4C=CC=CC34)sc2c1 (centres undefined)", "MEASURED_ENDPOINT": "TGI", "READING": "> 100 µM"}
{"MOLECULE": "Nc1n[n+]([O-])c2cnccc2[n+]1[O-]", "MEASURED_ENDPOINT": "TGI", "READING": "> 100 µM"}
{"MOLECULE": "O=C(Nc1ccc([N+](=O)[O-])cc1)c1cc2ccccc2cc1O", "MEASURED_ENDPOINT": "TGI", "READING": "3.13 µM"}
{"MOLECULE": "Cc1cc(Cl)ccc1Nc1nc(C(F)(F)F)ccc1C(=O)N/N=C/c1ccc(N(C)C)cc1", "MEASURED_ENDPOINT": "TGI", "READING": "> 100 µM"}
{"MOLECULE": "FC(F)(F)c1nc2cc(SSc3cc4nc(C(F)(F)F)[nH]c4cc3Cl)c(Cl)cc2[nH]1", "MEASURED_ENDPOINT": "TGI", "READING": "> 100 µM"}
{"MOLECULE": "CCOC(=O)CCc1c(C)c2c(O)cc(O)cc2oc1=O", "MEASURED_ENDPOINT": "TGI", "READING": "> 100 µM"}
{"MOLECULE": "N#CCCCCC12C3C(=O)N(c4ccccc4)C(=O)C3ON1O[C@@H]1C(=O)N(c3ccccc3)C(=O)[C@@H]12 (some centres undefined)", "MEASURED_ENDPOINT": "TGI", "READING": "> 100 µM"}
{"MOLECULE": "CC1CCC(C#N)(NOC2=NCCN2)CC1 (centres undefined)", "MEASURED_ENDPOINT": "TGI", "READING": "> 100 µM"}
{"MOLECULE": "CCN1CCN(c2cc(C)nc(NCc3cc(Nc4ccnc5cc(Cl)ccc45)ccc3F)n2)CC1", "MEASURED_ENDPOINT": "TGI", "READING": "> 100 µM"}
{"MOLECULE": "Clc1ccc2c(NCCN3CCN(c4ccnc(N5CCCC5)n4)CC3)ccnc2c1", "MEASURED_ENDPOINT": "TGI", "READING": "18.1 µM"}
{"MOLECULE": "O=C(/C=C\\c1ccc(OCCCCCC[P+](c2ccccc2)(c2ccccc2)c2ccccc2)cc1)c1ccc2c(c1)OCCO2", "MEASURED_ENDPOINT": "TGI", "READING": "> 100 µM"}
{"MOLECULE": "COc1cc(C2c3cc4c(cc3[C@@H](Nc3ccc(N5CCOCC5)cc3)C3COC(=O)[C@H]23)OCO4)cc(OC)c1O (some centres undefined)", "MEASURED_ENDPOINT": "TGI", "READING": "26.2 µM"}
